assay: Inhibition of Hh receptor (unknown origin) expressed in SAG-stimulated mouse NIH3T3 cells incubated for 24 hrs by Gli-luciferase reporter gene assay; type: cell-based; conditions: NIH3T3, 24 h
Task for the reader: assign each of the following compounds its reported IC50.
Express it in nM; write the number only.

Q: Entry Cn1c(-c2cccc(N3CCc4sc(C(=O)N5CCN(C(=O)c6ccco6)CC5)cc4C3)c2)nc2ccccc21 : reported IC50 = ?
Ans: 490

Q: Entry CCN1CCN(C(=O)c2cc3c(s2)CCN(c2cccc(-c4nc5ccccc5n4C)c2)C3)CC1 : reported IC50 = ?
Ans: 350

Q: Entry Cn1c(-c2cccc(N3CCc4sc(C(=O)N5CCN(c6cccc(Cl)c6)CC5)cc4C3)c2)nc2ccccc21 : reported IC50 = ?
Ans: 380

Q: Entry Cn1c(-c2cccc(N3CCc4sc(C(=O)N5CCCC5)cc4C3)c2)nc2ccccc21 : reported IC50 = ?
Ans: 260

Q: Entry Cc1ccc(NC(=O)c2cc3c(s2)CCN(c2cccc(-c4nc5ccccc5n4C)c2)C3)cc1 : reported IC50 = ?
Ans: 1630

Q: Entry Cn1c(-c2cc(N3CCc4sc(C(=O)N5CCC(O)CC5)cc4C3)ccc2Cl)nc2ccccc21 : reported IC50 = ?
Ans: 190

Q: Entry Cn1c(-c2cc(N3CCc4sc(C(=O)N5CCN(c6ccc(Cl)c(Cl)c6)CC5)cc4C3)ccc2Cl)nc2ccccc21 : reported IC50 = ?
Ans: 160

Q: Entry Cn1c(-c2cccc(N3CCc4sc(C(=O)N5CCN(c6ccccc6)CC5)cc4C3)c2)nc2ccccc21 : reported IC50 = ?
Ans: 1320

* * *

molecular target: Protein smoothened (Homo sapiens); assay: Displacement of BODIPY-cyclopamine from human Smo expressed in HEK293 cells incubated for 3 hrs by fluorescence competitive displacement assay
Sequence (Q99835 whole entry): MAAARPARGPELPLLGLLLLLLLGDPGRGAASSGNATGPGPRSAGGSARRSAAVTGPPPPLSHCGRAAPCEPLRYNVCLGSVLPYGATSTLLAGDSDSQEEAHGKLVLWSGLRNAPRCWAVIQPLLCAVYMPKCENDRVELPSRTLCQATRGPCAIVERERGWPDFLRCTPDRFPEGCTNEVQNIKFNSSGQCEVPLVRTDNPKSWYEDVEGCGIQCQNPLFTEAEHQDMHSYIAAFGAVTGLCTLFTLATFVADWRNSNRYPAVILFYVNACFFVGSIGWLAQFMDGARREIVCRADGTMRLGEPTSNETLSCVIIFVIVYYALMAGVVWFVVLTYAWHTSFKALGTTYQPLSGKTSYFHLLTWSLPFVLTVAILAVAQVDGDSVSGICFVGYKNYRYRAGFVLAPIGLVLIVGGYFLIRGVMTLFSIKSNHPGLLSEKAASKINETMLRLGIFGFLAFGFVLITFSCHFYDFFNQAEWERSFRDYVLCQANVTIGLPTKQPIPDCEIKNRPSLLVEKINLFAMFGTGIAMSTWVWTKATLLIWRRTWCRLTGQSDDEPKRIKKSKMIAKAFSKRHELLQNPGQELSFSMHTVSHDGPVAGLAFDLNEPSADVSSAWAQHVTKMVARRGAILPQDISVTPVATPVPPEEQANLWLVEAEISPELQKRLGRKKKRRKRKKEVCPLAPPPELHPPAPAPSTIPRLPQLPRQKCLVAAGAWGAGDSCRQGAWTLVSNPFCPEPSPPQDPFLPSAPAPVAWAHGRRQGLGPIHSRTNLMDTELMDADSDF
Task for the reader: assign each of the following compounds its reported pIC50.
Answer as the number alone; pIC50 is minus log10 of concentration in mol/L.

Q: Entry Cn1c(-c2cccc(N3CCc4sc(C(=O)N5CCN(c6ncccn6)CC5)cc4C3)c2)nc2ccccc21 : reported pIC50 = ?
Ans: 6.63

Q: Entry CN1CCN(C(=O)c2cc3c(s2)CCN(c2ccc(Cl)c(-c4nc5ccccc5n4C)c2)C3)CC1 : reported pIC50 = ?
Ans: 6.87

Q: Entry Cn1c(-c2cc(N3CCc4sc(C(=O)N5CCOCC5)cc4C3)ccc2Cl)nc2ccccc21 : reported pIC50 = ?
Ans: 7.74

Q: Entry Cn1c(-c2cc(N3CCc4sc(C(=O)N5CCN(S(C)(=O)=O)CC5)cc4C3)ccc2Cl)nc2ccccc21 : reported pIC50 = ?
Ans: 6.66

Q: Entry Cn1c(-c2cccc(N3CCc4sc(C(=O)N5CCOCC5)cc4C3)c2)nc2ccccc21 : reported pIC50 = ?
Ans: 6.53

Q: Entry Cn1c(-c2cccc(N3CCc4sc(C(=O)Nc5cccnc5)cc4C3)c2)nc2ccccc21 : reported pIC50 = ?
Ans: 6.58

Q: Entry Cn1c(-c2cccc(N3CCc4sc(C(=O)N5CCN(S(C)(=O)=O)CC5)cc4C3)c2)nc2ccccc21 : reported pIC50 = ?
Ans: 6.43

* * *

assay: Inhibition of Hh receptor (unknown origin) expressed in SAG-stimulated mouse NIH3T3 cells incubated for 24 hrs by Gli-luciferase reporter gene assay; type: cell-based; conditions: NIH3T3, 24 h
Task for the reader: assign each of the following compounds its reported IC50.
Express it in nM; write the number only.

Q: Entry Cn1c(-c2cccc(N3CCc4sc(C(=O)Nc5ccc(Br)cc5)cc4C3)c2)nc2ccccc21 : reported IC50 = ?
Ans: 450

Q: Entry COc1ccc(N2CCN(C(=O)c3cc4c(s3)CCN(c3cccc(-c5nc6ccccc6n5C)c3)C4)CC2)cc1 : reported IC50 = ?
Ans: 1260

Q: Entry Cn1c(-c2cccc(N3CCc4sc(C(=O)Nc5ccc(F)c(Br)c5)cc4C3)c2)nc2ccccc21 : reported IC50 = ?
Ans: 350

Q: Entry CC(=O)N1CCN(C(=O)c2cc3c(s2)CCN(c2cccc(-c4nc5ccccc5n4C)c2)C3)CC1 : reported IC50 = ?
Ans: 370

Q: Entry CS(=O)(=O)c1ccc(C(=O)Nc2ccc(Cl)c(-c3ccccn3)c2)c(Cl)c1 [VISMODEGIB] : reported IC50 = ?
Ans: 25

Q: Entry Cn1c(-c2cccc(N3CCc4sc(C(=O)N5CCN(c6ccccc6F)CC5)cc4C3)c2)nc2ccccc21 : reported IC50 = ?
Ans: 760

Q: Entry Cn1c(-c2cccc(N3CCc4sc(C(=O)Nc5ccccc5F)cc4C3)c2)nc2ccccc21 : reported IC50 = ?
Ans: 360

Q: Entry Cn1c(-c2cccc(N3CCc4sc(C(=O)N5CCN(c6ccc(Cl)c(Cl)c6)CC5)cc4C3)c2)nc2ccccc21 : reported IC50 = ?
Ans: 270

* * *

experiment: Inhibition of Hh receptor (unknown origin) expressed in SAG-stimulated mouse NIH3T3 cells incubated for 24 hrs by Gli-luciferase reporter gene assay; type: cell-based; settings: NIH3T3, 24 h
metricName: pIC50
Answer as the number alone; pIC50 is minus log10 of concentration in mol/L.

Q: Entry Cn1c(-c2cccc(N3CCc4sc(C(=O)N5CCN(c6ncccn6)CC5)cc4C3)c2)nc2ccccc21 : reported pIC50 = ?
Ans: 6.82

Q: Entry Cn1c(-c2cccc(N3CCc4sc(C(=O)Nc5ccc(F)c(F)c5)cc4C3)c2)nc2ccccc21 : reported pIC50 = ?
Ans: 6.57

Q: Entry Cn1c(-c2cccc(N3CCc4sc(C(=O)N5CCC(O)CC5)cc4C3)c2)nc2ccccc21 : reported pIC50 = ?
Ans: 6.55

Q: Entry Cn1c(-c2cc(N3CCc4sc(C(=O)Nc5cccnc5)cc4C3)ccc2Cl)nc2ccccc21 : reported pIC50 = ?
Ans: 6.85

Q: Entry Cc1ccc(NC(=O)c2cc3c(s2)CCN(c2cccc(-c4nc5ccccc5n4C)c2)C3)cc1Cl : reported pIC50 = ?
Ans: 6.51

Q: Entry Cn1c(-c2cccc(N3CCc4sc(C(=O)N5CCOCC5)cc4C3)c2)nc2ccccc21 : reported pIC50 = ?
Ans: 6.68

Q: Entry CC(C)CNC(=O)c1cc2c(s1)CCN(c1cccc(-c3nc4ccccc4n3C)c1)C2 : reported pIC50 = ?
Ans: 5.76

Q: Entry Cn1c(-c2cccc(N3CCc4sc(C(=O)N5CCN(C(=O)OC(C)(C)C)CC5)cc4C3)c2)nc2ccccc21 : reported pIC50 = ?
Ans: 5.68

Q: Entry CCN(CC)C(=O)c1cc2c(s1)CCN(c1cccc(-c3nc4ccccc4n3C)c1)C2 : reported pIC50 = ?
Ans: 5.87
